Attribution: ChEMBL document CHEMBL2069260

Listed here: items and their measured inhibition.
# target-desc: Phosphodiesterase 3 (Homo sapiens, UniProt Q14432+Q13370)
# procedure-summary: Inhibition of PDE3 at 100 nmol by Biomol Green quantizyme assay system
# Type: protein assay
Note to self: number, then unit, no commentary.

Solved entries (count: 8):
CCOC(=O)c1cc(Cc2ccc(Cl)cc2Cl)c(=O)[nH]c1C
30.8%
COC(=O)c1cc(Cc2ccccc2Cl)c(=O)[nH]c1C
36.9%
CCCc1cc(C(=O)OCC)c(C)[nH]c1=O
40%
Cc1[nH]c(=O)c(Cc2ccccc2Cl)cc1C#N
7.69%
Cc1[nH]c(=O)c(Cc2ccccc2)cc1C#N
38.5%
CCOC(=O)c1cc(Cc2ccc(Br)cc2)c(=O)[nH]c1-c1ccccc1
21.5%
CCOC(=O)c1cc(Cc2ccc(Br)cc2)c(=O)[nH]c1C
47.7%
COC(=O)c1cc(Cc2ccccc2)c(=O)[nH]c1C
36.9%

Note: attention shifts to another entry.
Give me measured inhibition, please, for this compound: CCOC(=O)c1cc(Cc2cccc(Cl)c2)c(=O)[nH]c1C 30.8%

###

# target-desc: Phosphodiesterase 3 (Homo sapiens, UniProt Q14432+Q13370)
# procedure-summary: Inhibition of PDE3 at 1 nM by Biomol Green quantizyme assay system
# Assay type: protein assay
We use 20% as the dividing line for inhibition: on or above the line is Satisfied, below is Not satisfied.

These recorded examples may help you get a feel for the data.
Cc1[nH]c(=O)c(Cc2ccc(Cl)cc2Cl)cc1C#N
Not satisfied
CCOC(=O)c1cc(Cc2cccc(Cl)c2)c(=O)[nH]c1-c1ccccc1
Not satisfied
COC(=O)c1cc(Cc2ccccc2)c(=O)[nH]c1C
Satisfied
Cc1[nH]c(=O)c(Cc2ccccc2Cl)cc1C#N
Not satisfied
CCOC(=O)c1cc(Cc2ccc(Br)cc2)c(=O)[nH]c1C
Satisfied
CCOC(=O)c1cc(Cc2ccc(C)cc2)c(=O)[nH]c1C
Not satisfied
Cc1[nH]c(=O)c(Cc2ccccc2)cc1C#N
Satisfied
CCCc1cc(C(=O)OCC)c(C)[nH]c1=O
Not satisfied

Confirm if inhibition reported for the molecule CCOC(=O)c1cc(Cc2ccccc2)c(=O)[nH]c1-c1ccccc1 is 20% or above. Satisfied

Confirm if inhibition reported for the molecule Cc1ccc(Cc2cc(C#N)c(C)[nH]c2=O)cc1 is 20% or above. Satisfied

###

Listed here: items and their measured inhibition.
# target-desc: Phosphodiesterase 3 (Homo sapiens, UniProt Q14432+Q13370)
# procedure-summary: Inhibition of PDE3 at 10 uM by Biomol Green quantizyme assay system
# Assay type: protein assay
Supply the numeric figure in %, leaving out any unit text.

CCOC(=O)c1cc(Cc2ccccc2)c(=O)[nH]c1-c1ccccc1
55.4

Give me measured inhibition, please, for this compound: Cc1[nH]c(=O)c(Cc2ccc(Cl)cc2Cl)cc1C#N 23.1

Give me measured inhibition, please, for this compound: CCOC(=O)c1cc(Cc2ccc(Br)cc2)c(=O)[nH]c1-c1ccccc1 55.4

Give me measured inhibition, please, for this compound: Cc1ccc(Cc2cc(C#N)c(C)[nH]c2=O)cc1 72.4

###

# target-desc: Phosphodiesterase 3 (Homo sapiens, UniProt Q14432+Q13370)
# procedure-summary: Inhibition of PDE3 at 500 uM by Biomol Green quantizyme assay system
# Assay type: protein assay
We use 70% as the dividing line for inhibition: on or above the line is label 1, below is label 0.

Cc1[nH]c(=O)c(Cc2ccccc2Cl)cc1C#N
label 1
CCOC(=O)c1cc(Cc2ccc(Br)cc2)c(=O)[nH]c1-c1ccccc1
label 1
CCOC(=O)c1cc(Cc2ccccc2)c(=O)[nH]c1C
label 0
Cc1[nH]c(=O)c(Cc2ccc(Cl)cc2Cl)cc1C#N
label 1
CCOC(=O)c1cc(Cc2ccc(Cl)cc2)c(=O)[nH]c1C
label 0

We next turn to a different compound, shown below.
Confirm if inhibition reported for the compound CCOC(=O)c1cc(Cc2cccc(Cl)c2)c(=O)[nH]c1C is 70% or above. label 1
